# MEASUREMENT TARGET: human mGluR4 (Homo sapiens, UniProt Q14833)
# Construct: expressed in transfected cells; host or cells: CHO cells
# Sequence (Q14833 33-912): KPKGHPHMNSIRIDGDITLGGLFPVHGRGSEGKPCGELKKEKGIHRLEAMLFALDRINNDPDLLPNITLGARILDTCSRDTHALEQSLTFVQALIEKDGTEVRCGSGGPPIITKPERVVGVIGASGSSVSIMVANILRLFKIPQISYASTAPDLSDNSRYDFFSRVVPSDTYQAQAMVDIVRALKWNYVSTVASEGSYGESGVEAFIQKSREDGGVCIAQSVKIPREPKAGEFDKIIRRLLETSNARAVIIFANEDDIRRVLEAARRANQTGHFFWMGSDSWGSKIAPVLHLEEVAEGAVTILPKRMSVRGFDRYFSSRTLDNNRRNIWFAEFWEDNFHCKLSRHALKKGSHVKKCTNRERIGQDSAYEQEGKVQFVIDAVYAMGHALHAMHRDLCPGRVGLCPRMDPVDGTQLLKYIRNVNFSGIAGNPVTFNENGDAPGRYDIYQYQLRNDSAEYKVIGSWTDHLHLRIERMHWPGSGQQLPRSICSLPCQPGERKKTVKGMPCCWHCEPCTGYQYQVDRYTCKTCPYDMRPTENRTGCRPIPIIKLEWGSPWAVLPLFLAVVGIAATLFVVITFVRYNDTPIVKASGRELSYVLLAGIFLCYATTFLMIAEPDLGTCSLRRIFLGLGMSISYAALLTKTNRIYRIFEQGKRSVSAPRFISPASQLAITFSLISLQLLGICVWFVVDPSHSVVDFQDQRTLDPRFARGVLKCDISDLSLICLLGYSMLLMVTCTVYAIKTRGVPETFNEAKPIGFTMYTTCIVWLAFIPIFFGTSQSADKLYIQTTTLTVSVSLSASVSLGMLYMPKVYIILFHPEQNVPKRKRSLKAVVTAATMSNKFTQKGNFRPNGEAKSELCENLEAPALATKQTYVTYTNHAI
# TEST DESCRIPTION: human mGluR4 potentiation, Ca2+-sensitive dye fluorescence assay in transfected CHO cells
# Type: cell-based
# CONDITION DETAILS: CHO; maximum extent of potentiation, human mGluR4; read-out: hGluMax
ENDPOINT: Emax (%)

Examples with their reported Emax follow.
- COMPOUND: "O=C(Nc1ccc(N2C(=O)CCC2=O)c(Cl)c1)c1ccccn1 [Example 16]"
  REPORTED: 119
- COMPOUND: "O=C(Nc1ccc(N2C(=O)CC(Cc3ccccc3Cl)(c3ccccc3)C2=O)c(Cl)c1)c1ccccn1 (centres unmarked) [Example 4]"
  REPORTED: 88
- COMPOUND: "O=C(Nc1ccc(N2C(=O)CC3(CCCCC3)C2=O)c(Cl)c1)c1ccccn1 [Example 15]"
  REPORTED: 139
- COMPOUND: "O=C(Nc1ccc(N2C(=O)Cc3ccccc3C2=O)c(Cl)c1)c1ccccn1 [Example 13]"
  REPORTED: 256
- COMPOUND: "O=C(Nc1ccc(N2C(=O)[C@@H]3CCCC[C@H]3C2=O)c(Cl)c1)c1ccccn1 [Example 8]"
  REPORTED: 189

[1] O=C(Nc1ccc(N2C(=O)[C@H]3CCCC[C@H]3C2=O)c(Cl)c1)c1ccccn1 [Example 9]
[2] O=C(Nc1ccc(N2C(=O)CC3(CCCCC3)CC2=O)c(Cl)c1)c1ccccn1 [Example 14]
[3] O=C(Nc1ccc(N2C(=O)CCC2=O)c(Cl)c1)c1cccc(Cl)n1 [Example 18]
[Q] Write the entries in order, lowest recorded Emax first. # output: labels, in the requested order
[A] 3, 1, 2
